Target: ActRIIA and ActRIIB (on TGFB/SMAD SBE Reporter HEK293 cells) (human)
Sequence (chain, as listed by the source, chain 1 of 2): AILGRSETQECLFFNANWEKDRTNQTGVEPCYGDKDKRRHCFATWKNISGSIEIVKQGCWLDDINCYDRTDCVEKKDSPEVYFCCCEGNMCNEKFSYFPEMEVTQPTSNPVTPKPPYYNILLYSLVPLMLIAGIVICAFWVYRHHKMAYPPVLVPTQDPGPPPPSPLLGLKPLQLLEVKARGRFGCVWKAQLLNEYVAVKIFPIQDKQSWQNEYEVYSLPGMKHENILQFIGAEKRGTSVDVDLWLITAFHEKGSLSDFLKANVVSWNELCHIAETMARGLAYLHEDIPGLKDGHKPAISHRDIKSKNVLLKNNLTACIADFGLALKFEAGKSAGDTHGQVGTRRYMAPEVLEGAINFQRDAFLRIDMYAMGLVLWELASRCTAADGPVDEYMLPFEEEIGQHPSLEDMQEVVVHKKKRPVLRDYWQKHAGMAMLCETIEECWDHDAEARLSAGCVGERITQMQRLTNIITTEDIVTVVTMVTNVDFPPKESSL
Sequence (chain, as listed by the source, chain 2 of 2): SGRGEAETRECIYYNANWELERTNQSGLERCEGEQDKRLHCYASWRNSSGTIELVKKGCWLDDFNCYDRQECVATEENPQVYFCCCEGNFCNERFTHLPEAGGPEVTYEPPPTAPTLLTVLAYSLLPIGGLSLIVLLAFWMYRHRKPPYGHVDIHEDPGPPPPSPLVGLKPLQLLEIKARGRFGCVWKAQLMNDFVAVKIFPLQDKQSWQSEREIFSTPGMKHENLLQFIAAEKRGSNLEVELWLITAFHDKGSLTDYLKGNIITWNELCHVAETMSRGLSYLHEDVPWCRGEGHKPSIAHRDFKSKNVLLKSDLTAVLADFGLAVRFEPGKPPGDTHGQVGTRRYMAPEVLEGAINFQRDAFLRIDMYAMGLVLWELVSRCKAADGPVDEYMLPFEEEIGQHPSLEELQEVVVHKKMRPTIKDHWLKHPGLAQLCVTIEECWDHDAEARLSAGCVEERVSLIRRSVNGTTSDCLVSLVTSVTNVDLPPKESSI
Experiment: cell-based or functional assay
# maps each entry to its IC50, Activin SMAD RGA
readout.label: IC50, Activin SMAD RGA (nM)

Antibody Bäratatza (antibody, V domains shown, full-length IgG) VH: QVQLVQSGAEVKKPGASVKVSCKASGYTFTSSYINWVRQAPGQGLEWMGTINAVSGSTSYAQKFQGRVTMTRDTSISTAYMELSRLRSDDTAVYYCARSGWFDYWGQGTLVTVSS VL: QSALTQPASVSGSPGQSITISCTGTSSDVGSYNYVNWYQQHPGKAPKLMIYGVSKQQSGVSNRFSGSKSGNTASLTISGLQAEDEADYYCGTFAGGSYYGVFGGGTKLTVL :: 0.138
Antibody Pfitzauf (antibody, V domains shown, full-length IgG) VH: QVQLVQSGAEVKKPGASVKVSCKASGYTFTSSYINWVRQAPGQGLEWMGTINPVSGSTSYAQKFQGRVTMTRDTSISTAYMELSRLRSDDTAVYYCARGGWFDYWGQGTLVTVSS VL: QSALTQPASVSGSPGQSITISCTGTSSDVGSGNYVNWYQQHPGKAPKLMIYGVSKRESGVSNRFSGSKSGNTASLTISGLQAEDEADYYCGTFAGGKYYGVFGGGTKLTVL :: 0.231

Data credit: patent US20250243286A1
